# measured-on: T1, ActRIIB-Fc homodimer (human, UniProt Q13705 19-137)
# T1 construct: extracellular domain; also called unmodified ActRIIB-Fc homodimer; ActRIIB-Fc:ActRIIB-Fc homodimer
# T1 sequence (looked up): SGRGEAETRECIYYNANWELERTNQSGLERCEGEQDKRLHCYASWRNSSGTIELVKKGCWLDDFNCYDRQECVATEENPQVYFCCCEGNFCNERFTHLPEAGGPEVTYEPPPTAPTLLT
# assay-notes: SPR (Biacore), anti-Fc capture, ligand in flow
measured-attribute: Kd

For the binder activin B (ligand, UniProt P09529 293-407, looked up) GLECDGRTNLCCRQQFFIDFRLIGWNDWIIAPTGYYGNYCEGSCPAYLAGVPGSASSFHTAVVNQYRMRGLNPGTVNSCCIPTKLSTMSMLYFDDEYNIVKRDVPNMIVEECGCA , give its measured Kd value.
0.02 nM

For the binder activin A (ligand, UniProt P08476 311-426, looked up) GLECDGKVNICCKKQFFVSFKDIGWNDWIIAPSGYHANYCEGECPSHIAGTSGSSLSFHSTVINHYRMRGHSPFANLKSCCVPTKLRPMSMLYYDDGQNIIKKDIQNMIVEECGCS , give its measured Kd value.
0.019 nM

For the binder GDF11 (ligand, UniProt O95390 299-407, looked up, also called BMP11) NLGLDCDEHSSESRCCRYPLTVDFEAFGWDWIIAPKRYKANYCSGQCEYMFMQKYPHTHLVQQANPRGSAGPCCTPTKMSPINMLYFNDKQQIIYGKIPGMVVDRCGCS , give its measured Kd value.
0.002 nM

For the binder BMP10 (ligand, UniProt O95393 317-424, looked up) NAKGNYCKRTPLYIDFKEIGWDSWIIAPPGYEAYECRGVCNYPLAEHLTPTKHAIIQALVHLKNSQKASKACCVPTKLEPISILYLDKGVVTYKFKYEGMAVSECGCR , give its measured Kd value.
0.011 nM

For the binder GDF3 (ligand, UniProt Q9NR23 251-364, looked up, also called VGR2) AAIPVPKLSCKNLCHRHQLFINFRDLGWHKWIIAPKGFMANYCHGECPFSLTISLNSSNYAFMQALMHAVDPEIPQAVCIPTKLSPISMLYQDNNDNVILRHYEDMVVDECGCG , give its measured Kd value.
1.5 nM

For the binder BMP9 (ligand, UniProt Q9UK05 320-429, looked up, also called GDF2) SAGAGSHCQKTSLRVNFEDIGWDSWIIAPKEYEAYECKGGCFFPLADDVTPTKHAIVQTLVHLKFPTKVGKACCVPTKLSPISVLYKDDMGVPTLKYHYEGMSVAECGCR , give its measured Kd value.
0.077 nM
